B1: library; numbered along this chain (parent)
chain: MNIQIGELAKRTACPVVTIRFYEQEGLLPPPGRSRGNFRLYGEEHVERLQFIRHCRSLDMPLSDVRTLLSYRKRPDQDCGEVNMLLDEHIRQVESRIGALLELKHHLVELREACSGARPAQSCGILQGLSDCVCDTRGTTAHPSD

variants of: B1; assay: sfGFP reporter fluorescence (15 h) (µM FITC); higher = stronger transcriptional activation; conditions: library round: Round 0; ligand: 30 µM Zn
Binary classification by sfGFP reporter fluorescence, with 0.08 as an inclusive lower bound for Yes; all other cases are No.

- mutation: "C55G"
  qualitative_label: "No"
- mutation: "P61T"
  qualitative_label: "Yes"
- mutation: "L28A"
  qualitative_label: "No"
- mutation: "D135K"
  qualitative_label: "Yes"
- mutation: "C79L"
  qualitative_label: "No"

INPUT: Given "L107W" , state whether its sfGFP reporter fluorescence is at least 0.08.
OUTPUT: Yes

INPUT: Request: "V82K"
OUTPUT: No

INPUT: Request: M60L D64K L107C G128I
OUTPUT: Yes

INPUT: Request: "C79N"
OUTPUT: No

INPUT: Request: "C134P"
OUTPUT: Yes

INPUT: Request: "Y41M"
OUTPUT: Yes

INPUT: Request: M60L D64K L107C
OUTPUT: Yes

INPUT: Request: "E94S"
OUTPUT: Yes

The origin of these recorded values is the supplement of paper PMC12783771.
